The reported measurements were obtained from paper PMC7021728.

- target-or-test-system: BLT2 H177^ECL2A (Homo sapiens, UniProt Q9NPC1, H177A)
- measurement-description: Gi protein activation catalyzed by BLT2 mutant
- run-conditions: construct H177^ECL2A
measured-attribute: pEC50
One number for each entry, as −log10 of the molar value.

Q: Query pEC50 for CCCCC[C@H](O)/C=C/C=C/C/C=C\CCCC(=O)O
Ans: 7.61

---

- target-or-test-system: wild-type BLT2 receptor (Homo sapiens)
- Construct: made in house
- Sequence (Q9NPC1 1-358): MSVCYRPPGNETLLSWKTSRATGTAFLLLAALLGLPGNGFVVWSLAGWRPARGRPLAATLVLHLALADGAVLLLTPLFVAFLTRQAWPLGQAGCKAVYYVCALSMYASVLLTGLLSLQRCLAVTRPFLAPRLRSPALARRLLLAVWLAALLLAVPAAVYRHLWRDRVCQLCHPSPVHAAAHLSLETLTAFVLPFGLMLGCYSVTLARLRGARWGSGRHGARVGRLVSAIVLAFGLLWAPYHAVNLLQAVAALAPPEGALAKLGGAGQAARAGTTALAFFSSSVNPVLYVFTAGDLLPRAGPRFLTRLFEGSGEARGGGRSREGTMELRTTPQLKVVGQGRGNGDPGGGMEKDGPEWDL
- measurement-description: Gi protein activation catalyzed by purified BLT2 (rate of GTPγS binding, Gαi2 intrinsic fluorescence)
- Format: biochemical
- run-conditions: wild-type
measured-attribute: EC50 (nM)
One number for each entry, in nM.

Q: Query EC50 for CCCCC[C@H](O)/C=C/C=C/C/C=C\CCCC(=O)O [12–HHT]
Ans: 21

---

- target-or-test-system: BLT2 R160^4.64A (Homo sapiens, UniProt Q9NPC1, R160A)
- measurement-description: Gi protein activation catalyzed by BLT2 mutant
- run-conditions: construct R160^4.64A
measured-attribute: EC50 (nM)
Give bare numbers, in nM.

Q: Query EC50 for CCCCC[C@H](O)/C=C/C=C/C/C=C\CCCC(=O)O
Ans: 20.5

---

- target-or-test-system: BLT2 T274^7.39A (Homo sapiens, UniProt Q9NPC1, T274A)
- Sequence (Q9NPC1 1-358 T274A): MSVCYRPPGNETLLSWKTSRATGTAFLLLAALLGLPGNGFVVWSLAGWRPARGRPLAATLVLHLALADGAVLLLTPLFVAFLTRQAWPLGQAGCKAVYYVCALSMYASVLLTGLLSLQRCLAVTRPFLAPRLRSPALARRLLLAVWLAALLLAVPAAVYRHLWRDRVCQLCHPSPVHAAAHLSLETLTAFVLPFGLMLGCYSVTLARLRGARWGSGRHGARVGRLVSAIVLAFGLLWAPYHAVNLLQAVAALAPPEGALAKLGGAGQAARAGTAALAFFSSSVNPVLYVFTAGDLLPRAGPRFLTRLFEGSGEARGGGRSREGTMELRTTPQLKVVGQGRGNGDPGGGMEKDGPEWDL
- measurement-description: Gi protein activation catalyzed by BLT2 mutant
- run-conditions: construct T274^7.39A
measured-attribute: pEC50
Give bare numbers, as −log10 of the molar value.

Q: Query pEC50 for CCCCC[C@H](O)/C=C/C=C/C/C=C\CCCC(=O)O
Ans: 7.56

---

- target-or-test-system: BLT2 R166^ECL2A (Homo sapiens, UniProt Q9NPC1, R166A)
- measurement-description: Gi protein activation catalyzed by BLT2 mutant
- run-conditions: construct R166^ECL2A
measured-attribute: pEC50
Give bare numbers, as −log10 of the molar value.

Q: Query pEC50 for CCCCC[C@H](O)/C=C/C=C/C/C=C\CCCC(=O)O [12–HHT]
Ans: 7.68

---

- target-or-test-system: BLT2 R270^7.35A (Homo sapiens, UniProt Q9NPC1, R270A)
- measurement-description: Gi protein activation catalyzed by BLT2 mutant
- run-conditions: construct R270^7.35A
measured-attribute: pEC50
Numbers only, as −log10 of the molar value.

Q: Query pEC50 for CCCCC[C@H](O)/C=C/C=C/C/C=C\CCCC(=O)O [12–HHT]
Ans: 6.63
